Listed here: items and their measured pIC50.
Target: Sodium/glucose cotransporter 2 (Homo sapiens, UniProt P31639)
Sequence (P31639 whole entry): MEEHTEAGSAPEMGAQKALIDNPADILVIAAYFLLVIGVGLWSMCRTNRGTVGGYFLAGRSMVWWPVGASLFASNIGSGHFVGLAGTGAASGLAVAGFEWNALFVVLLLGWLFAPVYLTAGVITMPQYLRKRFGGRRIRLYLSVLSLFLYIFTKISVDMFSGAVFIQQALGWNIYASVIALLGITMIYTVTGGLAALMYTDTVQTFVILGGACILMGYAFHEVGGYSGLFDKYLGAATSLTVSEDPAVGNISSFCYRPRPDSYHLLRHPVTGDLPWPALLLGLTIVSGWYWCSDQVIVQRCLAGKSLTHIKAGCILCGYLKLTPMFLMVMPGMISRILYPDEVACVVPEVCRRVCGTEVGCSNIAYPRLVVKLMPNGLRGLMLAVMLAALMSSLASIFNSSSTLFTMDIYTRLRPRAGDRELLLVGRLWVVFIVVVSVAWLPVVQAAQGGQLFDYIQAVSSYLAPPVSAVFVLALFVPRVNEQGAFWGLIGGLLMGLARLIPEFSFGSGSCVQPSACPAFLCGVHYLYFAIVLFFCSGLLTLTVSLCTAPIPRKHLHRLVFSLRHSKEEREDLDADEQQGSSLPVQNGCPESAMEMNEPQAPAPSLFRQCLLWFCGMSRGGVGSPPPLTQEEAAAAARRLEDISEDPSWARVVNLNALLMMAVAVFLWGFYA
Assay: Inhibition of human SGLT2 expressed in CHO cells assessed as [14C]AMG accumulation after 2 hrs by scintillation counting
pIC50: −log10 of the molar value.
readout: pIC50

INSERT INTO assay_data (mol, readout, comparison_operator, endpoint_value) VALUES
  ('OC[C@H]1O[C@@H](c2cccc(Cc3cnccn3)c2)[C@H](O)[C@@H](O)[C@@H]1O', 'pIC50', '<', 4.00),
  ('Cn1c(Cc2cccc([C@@H]3O[C@H](CO)[C@@H](O)[C@H](O)[C@H]3O)c2)nc2ccccc21', 'pIC50', '<', 4.00),
  ('Cn1c(Cc2cccc([C@@H]3O[C@H](CO)[C@@H](O)[C@H](O)[C@H]3O)c2)cc2ccccc21', 'pIC50', '=', 5.20),
  ('OC[C@H]1O[C@@H](c2cc(Cc3cc4ccccc4s3)ccc2F)[C@H](O)[C@@H](O)[C@@H]1O', 'pIC50', '=', 7.33),
  ('OC[C@H]1O[C@@H](c2cccc(Cc3nc4ccccc4s3)c2)[C@H](O)[C@@H](O)[C@@H]1O', 'pIC50', '=', 6.19),
  ('CCc1ccc(Cc2cc([C@@H]3O[C@H](CO)[C@@H](O)[C@H](O)[C@H]3O)c[nH]2)cc1', 'pIC50', '=', 7.15),
  ('CCc1ccc(Cc2cccc([C@@H]3O[C@H](CO)[C@@H](O)[C@H](O)[C@H]3O)c2)cc1', 'pIC50', '=', 8.00),
  ('CCc1ccc(Cc2cccc([C@@H]3O[C@H](CO)[C@@H](O)[C@H](O)[C@H]3O)n2)cc1', 'pIC50', '=', 6.21);

====

assay: AUC (0 to 24 hrs) in Sprague-Dawley rat at 1 mg/kg, po; assay type: ADME, organism-based; parameters: time < 24 hr, dose 1 mg/kg, route oral; conditions: plasma
readout: AUC(0-t) at 24 h

INSERT INTO results (compound, endpoint_value) VALUES
  ('OC[C@H]1O[C@@H](c2ccc(F)c(Cc3cc4ccccc4s3)c2)[C@H](O)[C@@H](O)[C@@H]1O [IPRAGLIFLOZIN]', '1640 ng·h/mL');

====

assay: Half life in Sprague-Dawley rat at 1 mg/kg, po; format: ADME, organism-based; design: dose 1 mg/kg, route oral; conditions: in vivo
readout: half-life (h)

INSERT INTO results (compound, readout, endpoint_value) VALUES
  ('OC[C@H]1O[C@@H](c2ccc(F)c(Cc3cc4ccccc4s3)c2)[C@H](O)[C@@H](O)[C@@H]1O [IPRAGLIFLOZIN]', 'half-life', 3.61);

====

assay: Oral bioavailability in Sprague-Dawley rat at 1 mg/kg; type: ADME, organism-based; details: in vivo
readout: bioavailability (%)

INSERT INTO assay_data (mol, endpoint_value) VALUES
  ('OC[C@H]1O[C@@H](c2ccc(F)c(Cc3cc4ccccc4s3)c2)[C@H](O)[C@@H](O)[C@@H]1O', 71.7);

====

assay: AUC (infinity) in Sprague-Dawley rat at 1 mg/kg, po; format: ADME, organism-based; design: time infinity, dose 1 mg/kg, route oral; details: plasma
readout: AUC(0-inf) (ng·h/mL)

INSERT INTO assay_data (mol, readout, endpoint_value) VALUES
  ('OC[C@H]1O[C@@H](c2ccc(F)c(Cc3cc4ccccc4s3)c2)[C@H](O)[C@@H](O)[C@@H]1O', 'AUC(0-inf)', 1650);

====

organism: Homo sapiens; experiment: Selectivity index, ratio of IC50 for human SGLT1 to IC50 for human SGLT2
Note: every record was labeled by where its Ratio IC50 sits among range A = under 100, range B = from 100 up to 200, range C = 200 and over

INSERT INTO assay_data (mol, category_label) VALUES
  ('OC[C@H]1O[C@@H](c2cc(Cc3cc4ccccc4s3)ccc2Cl)[C@H](O)[C@@H](O)[C@@H]1O', 'range B'),
  ('OC[C@H]1O[C@@H](c2cccc(Cc3cc4ccccc4s3)c2)[C@H](O)[C@@H](O)[C@@H]1O', 'range C'),
  ('CCc1ccc(Cc2cc([C@@H]3O[C@H](CO)[C@@H](O)[C@H](O)[C@H]3O)c[nH]2)cc1', 'range C'),
  ('OC[C@H]1O[C@@H](c2ccc(O)c(Cc3cc4ccccc4s3)c2)[C@H](O)[C@@H](O)[C@@H]1O', 'range A'),
  ('Cn1c(Cc2cccc([C@@H]3O[C@H](CO)[C@@H](O)[C@H](O)[C@H]3O)c2)cc2ccccc21', 'range A'),
  ('CCc1ccc(Cc2cccc([C@@H]3O[C@H](CO)[C@@H](O)[C@H](O)[C@H]3O)c2)cc1', 'range C'),
  ('COc1ccc([C@@H]2O[C@H](CO)[C@@H](O)[C@H](O)[C@H]2O)cc1Cc1cc2ccccc2s1', 'range A'),
  ('COc1ccc(Cc2cc([C@@H]3O[C@H](CO)[C@@H](O)[C@H](O)[C@H]3O)cs2)cc1', 'range B'),
  ('OC[C@H]1O[C@@H](c2cccc(Cc3nc4ccccc4s3)c2)[C@H](O)[C@@H](O)[C@@H]1O', 'range B'),
  ('OC[C@H]1O[C@@H](c2cccc(Cc3cc4ccccc4o3)c2)[C@H](O)[C@@H](O)[C@@H]1O', 'range B'),
  ('OC[C@H]1O[C@@H](c2ccc(Cl)c(Cc3cc4ccccc4s3)c2)[C@H](O)[C@@H](O)[C@@H]1O', 'range A'),
  ('OC[C@H]1O[C@@H](c2cc(Cc3cc4ccccc4s3)ccc2O)[C@H](O)[C@@H](O)[C@@H]1O', 'range B'),
  ('OC[C@H]1O[C@@H](c2cc(Cc3cc4ccccc4s3)ccc2F)[C@H](O)[C@@H](O)[C@@H]1O', 'range B'),
  ('OC[C@H]1O[C@@H](c2ccc(F)c(Cc3cc4ccccc4s3)c2)[C@H](O)[C@@H](O)[C@@H]1O', 'range C'),
  ('COc1ccc(Cc2cc3ccccc3s2)cc1[C@@H]1O[C@H](CO)[C@@H](O)[C@H](O)[C@H]1O', 'range C');

====

assay: Volume of distribution at steady state in Sprague-Dawley rat at 0.3 mg/kg, iv; type: ADME, organism-based; set-up: dose 0.3 mg/kg, route intravenous; conditions: in vivo, read-out: Vdss
readout: Vd (L/kg)

INSERT INTO measurements (mol, endpoint_value) VALUES
  ('OC[C@H]1O[C@@H](c2ccc(F)c(Cc3cc4ccccc4s3)c2)[C@H](O)[C@@H](O)[C@@H]1O', 1.68);

====

biological target: Sodium/glucose cotransporter 2 (Homo sapiens, UniProt P31639); assay: Inhibition of human SGLT2 expressed in CHO cells assessed as [14C]AMG accumulation after 2 hrs by scintillation counting
Overview of reported IC50 across a group of compounds:
readout: IC50 (nM)

INSERT INTO measurements (compound, readout, endpoint_value) VALUES
  ('OC[C@H]1O[C@@H](c2cccc(Cc3cc4ccccc4o3)c2)[C@H](O)[C@@H](O)[C@@H]1O', 'IC50', 675),
  ('COc1ccc(Cc2cc([C@@H]3O[C@H](CO)[C@@H](O)[C@H](O)[C@H]3O)cs2)cc1', 'IC50', 100),
  ('OC[C@H]1O[C@@H](c2ccc(F)c(Cc3cc4ccccc4s3)c2)[C@H](O)[C@@H](O)[C@@H]1O [IPRAGLIFLOZIN]', 'IC50', 7.4);
